Target: Protein arginine N-methyltransferase 8 (Homo sapiens)
Sequence (Q9NR22 2-394 limits assumed): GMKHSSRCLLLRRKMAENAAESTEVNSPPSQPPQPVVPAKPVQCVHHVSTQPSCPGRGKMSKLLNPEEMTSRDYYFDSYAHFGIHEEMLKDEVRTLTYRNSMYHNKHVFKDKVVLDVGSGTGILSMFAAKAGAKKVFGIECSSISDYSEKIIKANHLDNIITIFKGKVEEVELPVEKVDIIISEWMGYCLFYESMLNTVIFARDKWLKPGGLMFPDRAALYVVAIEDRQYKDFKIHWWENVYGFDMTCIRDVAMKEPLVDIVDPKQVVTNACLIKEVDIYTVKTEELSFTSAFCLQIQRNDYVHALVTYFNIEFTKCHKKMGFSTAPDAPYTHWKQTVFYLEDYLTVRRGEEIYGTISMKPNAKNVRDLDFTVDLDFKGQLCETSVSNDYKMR
Experiment: Inhibition of human PRMT8 using Histone H4 as substrate and SAM as cofactor at 10 uM by radiometric HotSpot assay relative to control
readout-type: inhibition

Below, 3 compounds whose answers are already recorded.
Report inhibition for Nc1ncnc2c1ncn2[C@@H]1O[C@H](CSCCNC(=O)NCc2ccc3cnccc3c2)[C@@H](O)[C@H]1O tested on Protein arginine N-methyltransferase 8 (Homo sapiens).
< 30%

Queued: COc1cc2nc(-c3ccc(O)cc3)nc(NCCSC[C@H]3O[C@@H](n4cnc5c(N)ncnc54)[C@H](O)[C@@H]3O)c2cc1OC
< 50%

Queued: Nc1ncnc2c1ncn2[C@@H]1O[C@H](CSCCCNC(=O)NCCc2ccccc2)[C@@H](O)[C@H]1O
< 30%

More entries:
Report inhibition for N=C(NCCCSC[C@H]1O[C@@H](n2cnc3c(NCCCc4ccccc4)ncnc32)[C@H](O)[C@@H]1O)NC1CC1 tested on Protein arginine N-methyltransferase 8 (Homo sapiens).
70%

Queued: COc1cc2nc(-c3cccc(O)c3)nc(NCCSC[C@H]3O[C@@H](n4cnc5c(N)ncnc54)[C@H](O)[C@@H]3O)c2cc1OC
< 50%

###

Biological target: Protein arginine N-methyltransferase 3 (Homo sapiens)
Sequence (O60678 2-531 limits assumed): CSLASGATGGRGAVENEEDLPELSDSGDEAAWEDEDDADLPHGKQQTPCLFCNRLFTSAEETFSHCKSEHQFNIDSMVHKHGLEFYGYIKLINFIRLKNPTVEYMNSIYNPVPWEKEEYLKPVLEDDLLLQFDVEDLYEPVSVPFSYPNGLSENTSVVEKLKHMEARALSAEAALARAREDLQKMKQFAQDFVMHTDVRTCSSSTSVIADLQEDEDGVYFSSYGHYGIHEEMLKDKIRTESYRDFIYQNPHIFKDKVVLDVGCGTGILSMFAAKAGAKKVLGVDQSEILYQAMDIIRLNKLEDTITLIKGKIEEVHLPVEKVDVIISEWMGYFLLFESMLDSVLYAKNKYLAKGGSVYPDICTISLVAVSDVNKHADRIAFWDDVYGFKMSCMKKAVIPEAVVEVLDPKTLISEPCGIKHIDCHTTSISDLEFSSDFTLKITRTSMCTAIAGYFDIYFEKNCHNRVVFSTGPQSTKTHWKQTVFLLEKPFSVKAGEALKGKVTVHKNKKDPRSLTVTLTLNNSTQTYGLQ
Experiment: Inhibition of human PRMT3 using H4-21peptide as substrate at 10 uM incubated for 10 mins by fluorescence based analysis relative to control
readout-type: inhibition

Below, 2 compounds whose answers are already recorded.
Report inhibition for Nc1ncnc2c1ncn2[C@@H]1O[C@H](CSCCNCc2cccc(-c3cccc4cn[nH]c34)c2)[C@@H](O)[C@H]1O tested on Protein arginine N-methyltransferase 3 (Homo sapiens).
< 30%

Queued: COc1cc2nc(-c3ccccc3O)nc(NCCSC[C@H]3O[C@@H](n4cnc5c(N)ncnc54)[C@H](O)[C@@H]3O)c2cc1OC
< 30%

Now let's try a different one.
Report inhibition for Nc1ncnc2c1ncn2[C@@H]1O[C@H](CSCCNC(=O)NCc2ccc3cnccc3c2)[C@@H](O)[C@H]1O tested on Protein arginine N-methyltransferase 3 (Homo sapiens).
3%

###

Reported values of inhibition for individual entries
Target: Protein arginine N-methyltransferase 3 (Homo sapiens)
Test: Inhibition of human PRMT3 using H4-21peptide as substrate at 10 uM incubated for 10 mins by fluorescence based analysis relative to control

Below, 10 compounds whose answers are already recorded.
Report inhibition for Nc1ncnc2c1ncn2[C@@H]1O[C@H](CSCCNCc2cccc(-c3cccc(F)c3)c2)[C@@H](O)[C@H]1O tested on Protein arginine N-methyltransferase 3 (Homo sapiens).
< 30%

Queued: Nc1ncnc2c1ncn2[C@@H]1O[C@H](CSCCCNC(=O)NCc2ccc(F)cc2)[C@@H](O)[C@H]1O
3%

Queued: Nc1ncnc2c1ncn2[C@@H]1O[C@H](CSCCOc2ccc(-c3cncnc3)cc2)[C@@H](O)[C@H]1O
< 30%

Queued: CCNC(=O)NCCSC[C@H]1O[C@@H](n2cnc3c(N)ncnc32)[C@H](O)[C@@H]1O
3%

Queued: N=C(NCCCSC[C@H]1O[C@@H](n2cnc3c(NCCCc4ccccc4)ncnc32)[C@H](O)[C@@H]1O)NC1CC1
< 30%

Queued: Nc1ncnc2c1ncn2[C@@H]1O[C@H](CSCCNC(=O)NCc2ccccc2Br)[C@@H](O)[C@H]1O
3%

Queued: Nc1ncnc2c1ncn2[C@@H]1O[C@H](CSCCCNCc2cccc(-c3ccc(Cl)cc3)c2)[C@@H](O)[C@H]1O
< 30%

Queued: N=C(NCCCSC[C@H]1O[C@@H](n2cnc3c(NCCCc4ccccc4)ncnc32)[C@H](O)[C@@H]1O)NC1CCCCC1
< 30%

Queued: N=C(NCCCSC[C@H]1O[C@@H](n2cnc3c(NCCCc4ccccc4)ncnc32)[C@H](O)[C@@H]1O)NCC1CCC1
< 30%

Queued: N=C(NCCCSC[C@H]1O[C@@H](n2cnc3c(NCCCc4ccccc4)ncnc32)[C@H](O)[C@@H]1O)NCCc1ccccc1
< 30%

More entries:
Report inhibition for Nc1ncnc2c1ncn2[C@@H]1O[C@H](CSCCCNC(=O)NCc2ccc3c(c2)OCO3)[C@@H](O)[C@H]1O tested on Protein arginine N-methyltransferase 3 (Homo sapiens).
3%

Queued: Nc1ncnc2c1ncn2[C@@H]1O[C@H](CSCCOc2ccc(-c3ccc(O)cc3)cc2)[C@@H](O)[C@H]1O
< 30%

Queued: COc1cc2nc(-c3ccc(F)c(O)c3)nc(NCCSC[C@H]3O[C@@H](n4cnc5c(N)ncnc54)[C@H](O)[C@@H]3O)c2cc1OC
< 30%

Queued: Nc1ncnc2c1ncn2[C@@H]1O[C@H](CSCCNC(=O)Nc2cccc3ccccc23)[C@@H](O)[C@H]1O
3%

Queued: Nc1ncnc2c1ncn2[C@@H]1O[C@H](CSCCNC(=O)NCc2ccc(-c3cc[nH]n3)cc2)[C@@H](O)[C@H]1O
3%

Queued: N=C(NCCCSC[C@H]1O[C@@H](n2cnc3c(NCCCc4ccccc4)ncnc32)[C@H](O)[C@@H]1O)NCc1ccccc1
< 30%

Source: ChEMBL document CHEMBL5608259
